Assay target: human plasma-derived FIXa (Haematologic Technologies Inc) (human, UniProt P00740 47-191; P00740 227-461)
Sequence (P00740 47-191, chain 1 of 2): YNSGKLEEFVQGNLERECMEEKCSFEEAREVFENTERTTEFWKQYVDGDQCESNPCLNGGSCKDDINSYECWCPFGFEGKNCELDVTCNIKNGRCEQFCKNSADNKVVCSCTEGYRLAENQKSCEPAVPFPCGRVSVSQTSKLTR
Sequence (P00740 227-461, chain 2 of 2): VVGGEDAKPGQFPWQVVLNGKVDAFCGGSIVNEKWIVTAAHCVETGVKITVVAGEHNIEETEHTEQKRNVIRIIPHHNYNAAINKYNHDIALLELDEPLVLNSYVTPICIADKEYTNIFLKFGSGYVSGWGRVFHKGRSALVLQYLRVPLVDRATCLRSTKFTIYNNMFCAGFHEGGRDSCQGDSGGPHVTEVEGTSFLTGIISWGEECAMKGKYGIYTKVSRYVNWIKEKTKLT
Experiment: cell-based or functional assay
Here the recorded Stimulation index at 1600 nM OA antibody is given for each entry.
Form field: result (number plus unit)

>>> result("mAb5-1270 (monovalent one-armed version of mAb1-9016) (antibody, V domains shown) VH: EVQLVESGGGLVQPGRSLKLSCAASGFTFDDYAMHWVRQVPGKGLEWVSGISWRGDIGGYVDSVKGRFTISRDNAKNSLYLQLNSLRAEDTALYYCVKSYGSGSFYNAFDSWGQGTLVTVSS VL: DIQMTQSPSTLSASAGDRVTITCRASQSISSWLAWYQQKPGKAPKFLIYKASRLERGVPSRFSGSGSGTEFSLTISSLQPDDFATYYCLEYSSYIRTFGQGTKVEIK")
"4320 fold"

Query: Supply reported Stimulation index at 1600 nM OA antibody belonging to this binder: mAb5-1695 (monovalent one-armed version of mAb1-9134) (antibody, V domains shown) VH: EVQLVESGGGLVQPGRSLKLSCAASGFTFDDYAMHWVRQVPGKGLEWVSGISWKGDIIGYVDSVKGRFTISRDNAKNSLYLQLNSLRAEDTALYYCVKSYGSGSFYNAFDSWGQGTLVTVSS VL: DIQMTQSPSTLSASAGDRVTITCRASQSISEWLAWYQQKPGKAPKFLIYKASRLDRGVPSRFSGSGSGTEFSLTISSLQPDDFATYYCLEYSSYIRTFGQGTKVEIK
Reply: 320 fold

Query: Supply reported Stimulation index at 1600 nM OA antibody belonging to this binder: mAb5-0152 (monovalent one-armed version of mAb1-8782) (antibody, V domains shown) VH: EVQLVESGGGLVQPGRSLKLSCAASGFTFHDYAMHWVRQVPGKGLEWVSGISWRGDITGYVDSVKGRFTISRDNAKNSLYLQLNSLRAEDTALYYCVKSYGSGSFYNAFDSWGQGTLVTVSS VL: DIQMTQSPSTLSASAGDRVTITCRASQSISSWLAWYQQKPGKAPKFLIYKASRLDRGVPSRFSGSGSGTEFSLTISSLQPDDFATYYCLEYSSYIRTFGQGTKVEIK
Reply: 417 fold
